target: Receptor-type tyrosine-protein kinase FLT3 (Homo sapiens) (UniProt P36888); settings: at 0.1 µM;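 further: mean inhibition value from the GSK PKIS kinase screening set, with the assay run by Nanosyn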
Sequence (P36888 whole entry): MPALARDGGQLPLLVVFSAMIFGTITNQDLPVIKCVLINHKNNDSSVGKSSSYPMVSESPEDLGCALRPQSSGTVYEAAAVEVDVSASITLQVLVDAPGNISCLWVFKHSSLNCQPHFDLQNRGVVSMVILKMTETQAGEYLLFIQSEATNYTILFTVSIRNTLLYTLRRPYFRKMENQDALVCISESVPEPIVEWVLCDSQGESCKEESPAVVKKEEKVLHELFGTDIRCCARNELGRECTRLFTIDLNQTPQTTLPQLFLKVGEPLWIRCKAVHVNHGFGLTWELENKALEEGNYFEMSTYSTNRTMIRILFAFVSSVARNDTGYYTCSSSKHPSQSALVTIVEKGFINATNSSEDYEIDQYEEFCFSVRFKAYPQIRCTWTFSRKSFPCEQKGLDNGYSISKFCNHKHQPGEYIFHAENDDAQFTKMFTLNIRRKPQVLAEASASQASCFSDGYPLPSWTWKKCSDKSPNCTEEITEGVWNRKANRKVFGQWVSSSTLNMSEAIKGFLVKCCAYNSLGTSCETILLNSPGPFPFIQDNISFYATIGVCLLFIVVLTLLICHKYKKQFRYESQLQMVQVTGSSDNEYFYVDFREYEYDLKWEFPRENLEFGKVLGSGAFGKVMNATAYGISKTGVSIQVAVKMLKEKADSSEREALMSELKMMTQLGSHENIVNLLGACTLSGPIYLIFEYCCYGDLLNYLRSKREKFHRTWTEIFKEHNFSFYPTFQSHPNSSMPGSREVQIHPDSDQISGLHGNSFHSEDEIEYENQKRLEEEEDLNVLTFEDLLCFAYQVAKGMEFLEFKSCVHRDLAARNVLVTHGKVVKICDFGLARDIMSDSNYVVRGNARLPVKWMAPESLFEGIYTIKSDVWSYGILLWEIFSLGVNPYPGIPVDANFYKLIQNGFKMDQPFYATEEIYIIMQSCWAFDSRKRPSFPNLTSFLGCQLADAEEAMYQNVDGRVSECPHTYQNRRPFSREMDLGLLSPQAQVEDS
quantityMeasured: inhibition (%)
Give a bare numeral; the unit % is implied.

Worked set:
compoundStructureString	inhibition [%]
N#Cc1c(NC(=O)CN2CCOCC2)sc2c1CCCC2	1.8
COc1ccc(CNC(=O)c2ccc(-c3cc(-c4nnc(C)o4)ccc3C)cc2)cc1	0.57
CCCN(CCS(C)(=O)=O)Cc1ccc(-c2ccc3ncnc(Nc4ccc(OCc5cccc(F)c5)c(Cl)c4)c3c2)o1	0.88

What value of measured inhibition is listed for COc1ccc(-c2nn3ncccc3c2-c2ccnc(Nc3ccc4c(c3)OCCO4)n2)cc1 ?
-1.66

Field request: inhibition | item: CCN1CCC(CC(=O)Nc2n[nH]c3nnc(-c4cccc(F)c4F)cc23)CC1
3.74

For the compound shown here, CCn1cc(-c2ccnc3[nH]ccc23)c(-c2cccc(NC(=O)Nc3ccc(OCc4ccccc4)cc3)c2)n1 , give the reported inhibition.
-1.9

====

Examples of molecules with documented inhibition follow.
molecular target: Homeodomain-interacting protein kinase 4 (Homo sapiens) (UniProt Q8NE63); conditions: at 0.1 µM;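 further: reported as mean inhibition, part of the GSK PKIS dataset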
Sequence (Q8NE63 whole entry): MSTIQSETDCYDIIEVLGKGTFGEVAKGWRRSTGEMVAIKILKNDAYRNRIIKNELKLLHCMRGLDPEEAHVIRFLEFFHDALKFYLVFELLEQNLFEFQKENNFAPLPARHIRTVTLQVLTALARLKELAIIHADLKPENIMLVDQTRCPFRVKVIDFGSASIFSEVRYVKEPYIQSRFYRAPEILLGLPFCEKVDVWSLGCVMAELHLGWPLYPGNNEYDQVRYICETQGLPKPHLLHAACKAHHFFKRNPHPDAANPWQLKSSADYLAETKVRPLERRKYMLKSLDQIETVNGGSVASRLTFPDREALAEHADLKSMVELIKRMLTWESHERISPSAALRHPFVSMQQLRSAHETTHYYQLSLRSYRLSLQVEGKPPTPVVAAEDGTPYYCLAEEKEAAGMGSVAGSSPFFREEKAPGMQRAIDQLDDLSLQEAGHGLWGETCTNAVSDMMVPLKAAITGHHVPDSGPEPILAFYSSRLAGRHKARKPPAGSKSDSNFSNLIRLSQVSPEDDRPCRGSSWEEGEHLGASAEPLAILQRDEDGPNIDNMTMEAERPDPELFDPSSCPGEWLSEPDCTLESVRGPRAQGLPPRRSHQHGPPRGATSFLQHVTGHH
Form entry: enter the amount, then its unit.

compoundStructureString	inhibition
c1ccc(-c2nc3n(c2-c2ccc4c(c2)OCO4)CCC3)nc1	-0.4%
CCN(CC)S(=O)(=O)c1ccc(OC)c(Nc2ncc(-c3ccccc3)o2)c1	2.17%
CNC(=O)c1cc(-c2ccc(F)cc2)cc(-c2ccc(S(=O)(=O)N3CCCC3)cc2)c1N	-0.78%
CCCN1CCC(c2ccc(Nc3nc(Nc4cc(F)ccc4C(N)=O)c4cc[nH]c4n3)c(OC)c2)CC1	59.6%
CCN1CCC(CC(=O)Nc2n[nH]c3nnc(-c4cccc(F)c4F)cc23)CC1	0.11%

Now consider the entry below.
State the recorded inhibition for this entry: COC(=O)Nc1nc2ccc(Oc3ccc(NC(=O)Nc4cccc(Cl)c4)cc3)cc2[nH]1
2.35%

====

target: Dual specificity protein kinase CLK3 (Homo sapiens) (UniProt P49761); details: at 0.1 µM
Sequence (P49761 whole entry, looked up): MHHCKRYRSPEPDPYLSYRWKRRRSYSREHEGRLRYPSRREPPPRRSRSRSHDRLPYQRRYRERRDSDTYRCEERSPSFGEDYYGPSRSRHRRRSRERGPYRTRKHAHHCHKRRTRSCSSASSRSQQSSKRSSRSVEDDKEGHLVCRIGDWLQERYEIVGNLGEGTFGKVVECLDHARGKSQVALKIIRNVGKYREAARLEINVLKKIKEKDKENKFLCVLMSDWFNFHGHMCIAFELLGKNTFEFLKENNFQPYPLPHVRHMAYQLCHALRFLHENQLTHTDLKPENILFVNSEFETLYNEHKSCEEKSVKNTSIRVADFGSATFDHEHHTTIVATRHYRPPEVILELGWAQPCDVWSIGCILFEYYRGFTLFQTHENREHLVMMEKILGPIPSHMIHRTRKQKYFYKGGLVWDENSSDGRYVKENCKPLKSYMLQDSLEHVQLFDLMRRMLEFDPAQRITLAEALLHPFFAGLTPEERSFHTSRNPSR
Description: GSK_PKIS: CLK3 mean inhibition at 0.1 uM [Nanosyn]
quantityMeasured: inhibition
Report field: quantity (unit follows the number).

Before answering, review these 6 worked examples.
compound	inhibition
Cc1cccc2c1NC(=O)/C2=N\Nc1ccc(S(N)(=O)=O)cc1	1.44%
Nc1ncc(-c2cccc(S(N)(=O)=O)c2)c2scc(-c3ccc(F)c(Cl)c3)c12	1.16%
CCn1c(-c2nonc2N)nc2c(C#CC(C)(C)O)ncc(OC3CCNCC3)c21	0.62%
COc1cc2ncn(-c3cc(OCc4ccccc4C(F)(F)F)c(C(=O)N(C)C)s3)c2cc1OC	0.46%
CCn1c(-c2nonc2N)nc2ccccc21	1.2%
CNC(=O)c1cc(-c2ccc(F)cc2)cc(-c2ccc(S(=O)(=O)N3CCCC3)cc2)c1N	0.69%

I have this compound here, COc1ccc(CNC(=O)c2ccc(-c3cc(-c4nnc(C)o4)ccc3C)cc2)cc1 , and I need its recorded inhibition.
2.46%

Report inhibition for Cc1ccc2c(-c3ccnc(Nc4ccccc4)n3)c(-c3ccc(F)cc3)nn2n1 please.
1.04%

Report inhibition for COc1cccc(-c2c[nH]c3c(N/N=C/c4ccncc4)ncnc23)c1 please.
2.11%

If you can, please state the reported inhibition value of CN1CCC(n2cnc(-c3ccc(F)cc3)c2-c2ccnc(Nc3ccccc3)n2)CC1 .
0.75%

I'd like to know its inhibition. The compound in question is CC(C)(CO)CNC(=O)c1ccc2c(c1)/C(=N/Nc1ccc(S(N)(=O)=O)cc1)C(=O)N2
-0.48%

====

target: Mitogen-activated protein kinase 11 (Homo sapiens) (UniProt Q15759); details: at 1 µM;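 further: values are mean percent inhibition of p38beta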
Sequence (Q15759 whole entry): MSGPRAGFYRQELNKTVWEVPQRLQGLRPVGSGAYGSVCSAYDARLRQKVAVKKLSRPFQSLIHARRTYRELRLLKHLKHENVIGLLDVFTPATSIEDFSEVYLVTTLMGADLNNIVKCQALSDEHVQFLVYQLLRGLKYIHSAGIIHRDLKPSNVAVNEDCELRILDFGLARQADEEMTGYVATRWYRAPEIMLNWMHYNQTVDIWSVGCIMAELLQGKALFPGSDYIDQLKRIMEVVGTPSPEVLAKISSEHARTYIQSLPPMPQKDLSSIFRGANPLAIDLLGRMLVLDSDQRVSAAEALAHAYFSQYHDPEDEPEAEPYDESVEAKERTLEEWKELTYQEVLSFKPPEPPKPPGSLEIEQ
quantityMeasured: inhibition

compoundStructureString	inhibition
CCn1cc(-c2ccnc3[nH]ccc23)c(-c2cccc(NC(=O)Nc3ccc(OCc4ccccc4)cc3)c2)n1	3.29%
CS(=O)(=O)CCNCc1coc(-c2ccc3ncnc(Nc4ccc(OCc5ccccc5)cc4)c3c2)c1	5.1%
COC(=O)Nc1nc2ccc(S(=O)(=O)c3ccc(NC(=O)Nc4cc(C(F)(F)F)ccc4F)cc3)cc2[nH]1	8.9%

Now turn to the next molecule.
What does the data say about its inhibition? Entry: CCCN(CCS(C)(=O)=O)Cc1ccc(-c2ccc3ncnc(Nc4ccc(OCc5cccc(F)c5)c(Cl)c4)c3c2)o1
0.65%

====

tested on: Platelet-derived growth factor receptor alpha (Homo sapiens), P16234 [D842V]; settings: at 1 µM
Sequence (P16234 whole entry D842V): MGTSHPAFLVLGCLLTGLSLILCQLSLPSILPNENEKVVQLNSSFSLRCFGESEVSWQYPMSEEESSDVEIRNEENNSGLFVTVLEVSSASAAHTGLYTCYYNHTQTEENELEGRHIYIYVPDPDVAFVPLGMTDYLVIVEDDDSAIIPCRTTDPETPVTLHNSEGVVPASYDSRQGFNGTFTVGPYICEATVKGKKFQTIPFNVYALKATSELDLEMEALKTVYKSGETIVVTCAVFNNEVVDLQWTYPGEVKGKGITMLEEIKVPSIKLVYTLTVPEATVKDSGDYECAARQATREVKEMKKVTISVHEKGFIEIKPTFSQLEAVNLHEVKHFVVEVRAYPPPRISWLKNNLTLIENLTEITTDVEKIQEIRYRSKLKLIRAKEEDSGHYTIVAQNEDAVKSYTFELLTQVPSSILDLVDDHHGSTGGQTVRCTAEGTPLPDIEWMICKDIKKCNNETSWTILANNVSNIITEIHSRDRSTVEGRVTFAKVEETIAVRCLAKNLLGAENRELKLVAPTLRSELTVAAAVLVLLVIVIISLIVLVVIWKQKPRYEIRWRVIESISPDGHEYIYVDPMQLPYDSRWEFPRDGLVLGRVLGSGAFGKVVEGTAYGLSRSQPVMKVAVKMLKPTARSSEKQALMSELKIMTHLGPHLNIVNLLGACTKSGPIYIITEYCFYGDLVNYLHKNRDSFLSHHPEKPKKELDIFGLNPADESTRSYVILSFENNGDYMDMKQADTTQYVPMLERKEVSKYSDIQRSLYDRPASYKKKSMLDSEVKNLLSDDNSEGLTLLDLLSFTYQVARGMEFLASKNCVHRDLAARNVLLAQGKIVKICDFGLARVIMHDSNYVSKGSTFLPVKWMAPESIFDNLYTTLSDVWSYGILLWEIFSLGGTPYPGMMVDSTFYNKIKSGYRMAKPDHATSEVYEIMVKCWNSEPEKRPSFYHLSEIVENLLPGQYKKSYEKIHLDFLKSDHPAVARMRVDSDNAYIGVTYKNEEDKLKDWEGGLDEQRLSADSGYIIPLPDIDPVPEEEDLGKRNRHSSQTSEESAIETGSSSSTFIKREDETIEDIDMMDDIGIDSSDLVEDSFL
Would you mind labelling by inhibition? At or over 60% is rule met, under is rule not met.

The examples below pair each entry with its known result.
compoundStructureString	classAssignment
COc1ccc2[nH]c3c4[nH]c5ccc(OC)cc5c4c4c(c3c2c1)C(=O)NC4=O	rule met
CN1CCC(n2cnc(-c3ccc(F)cc3)c2-c2ccnc(N)n2)CC1	rule not met
CCn1cc(-c2ccnc3[nH]ccc23)c(-c2cccc(NC(=O)Nc3ccc(OCc4ccccc4)cc3)c2)n1	rule not met
c1cc(-c2cnn3nc(N4CCOCC4)ccc23)nc(NC2CC2)n1	rule met
COc1cc(/C=N/Nc2ncnc3[nH]ncc23)ccc1O	rule met
Fc1ccc(-c2nn3ncccc3c2-c2ccnc(Nc3ccc4c(c3)OCCO4)n2)cc1	rule not met
COC(=O)Nc1nc2ccc(S(=O)(=O)c3ccc(NC(=O)Nc4cc(C(F)(F)F)ccc4F)cc3)cc2[nH]1	rule not met
CC(C)COC(=O)c1ccc2c(c1)/C(=C/Nc1ccc(S(N)(=O)=O)cc1)C(=O)N2	rule met

In the following, a different compound is considered.
Does inhibition meet or surpass 60% for COc1cc2c(cc1Nc1nc(Nc3ccsc3C(N)=O)c3cc[nH]c3n1)N(C(=O)CN(C)C)CCC2(C)C ?
rule not met

====

target: Protein-tyrosine kinase 2-beta (Homo sapiens) (UniProt Q14289); conditions: at 1 µM
Sequence (Q14289 whole entry, looked up): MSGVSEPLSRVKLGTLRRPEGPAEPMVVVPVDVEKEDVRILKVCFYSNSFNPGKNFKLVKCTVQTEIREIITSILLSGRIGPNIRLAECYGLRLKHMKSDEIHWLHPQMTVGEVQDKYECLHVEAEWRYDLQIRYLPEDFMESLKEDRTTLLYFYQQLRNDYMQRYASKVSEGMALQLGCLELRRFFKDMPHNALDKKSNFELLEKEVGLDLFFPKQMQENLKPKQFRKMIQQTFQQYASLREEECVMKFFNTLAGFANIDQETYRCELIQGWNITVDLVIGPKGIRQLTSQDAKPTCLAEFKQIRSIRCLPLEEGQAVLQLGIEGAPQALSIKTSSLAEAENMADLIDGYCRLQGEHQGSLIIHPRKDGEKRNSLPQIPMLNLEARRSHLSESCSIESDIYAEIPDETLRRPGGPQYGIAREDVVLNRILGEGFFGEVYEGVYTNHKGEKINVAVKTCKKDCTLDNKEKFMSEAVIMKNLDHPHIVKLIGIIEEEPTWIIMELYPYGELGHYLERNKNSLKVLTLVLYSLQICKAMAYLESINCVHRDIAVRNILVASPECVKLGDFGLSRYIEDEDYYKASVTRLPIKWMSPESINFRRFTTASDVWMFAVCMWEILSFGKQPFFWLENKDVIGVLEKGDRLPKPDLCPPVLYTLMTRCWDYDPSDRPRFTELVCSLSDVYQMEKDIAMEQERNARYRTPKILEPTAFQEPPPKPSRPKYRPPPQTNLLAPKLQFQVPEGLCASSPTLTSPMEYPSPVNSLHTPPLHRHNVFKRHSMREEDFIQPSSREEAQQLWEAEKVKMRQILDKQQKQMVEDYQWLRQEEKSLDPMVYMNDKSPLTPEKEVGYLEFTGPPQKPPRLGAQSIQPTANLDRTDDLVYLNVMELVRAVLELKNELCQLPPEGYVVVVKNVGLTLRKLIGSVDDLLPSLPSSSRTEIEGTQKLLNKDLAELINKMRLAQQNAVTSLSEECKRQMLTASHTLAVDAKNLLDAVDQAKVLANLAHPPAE
Some compounds, each annotated with its measured inhibition.
Report as: number unit

compoundStructureString	quantityMeasured	result
CNC(=O)c1cncc(/C=C/c2ccccc2Cl)c1	inhibition	-0.21%
COc1ccc(-c2nn3ncccc3c2-c2ccnc(Nc3ccc4c(c3)OCCO4)n2)cc1	inhibition	10.2%
COc1cc(/C=N/Nc2ncnc3[nH]ncc23)ccc1O	inhibition	29.7%
COc1ccc2c(-c3ccnc(Nc4cccc(OC(F)(F)F)c4)n3)cnn2n1	inhibition	59.9%

Could you share what inhibition was measured for NS(=O)(=O)c1ccc(Nc2ncc(-c3ccccc3)o2)cc1 , tested on Protein-tyrosine kinase 2-beta (Homo sapiens) (UniProt Q14289)?
19.8%

Identify the measured inhibition of Fc1cccc(COc2ccc(Nc3ncnc4sc(-c5ccco5)cc34)cc2Cl)c1 for Protein-tyrosine kinase 2-beta (Homo sapiens) (UniProt Q14289).
5.02%

API: value(readout=inhibition, system=Protein-tyrosine kinase 2-beta (Homo sapiens) (UniProt Q14289)) for record Nc1ncc(-c2cccc(S(N)(=O)=O)c2)c2scc(-c3ccc(F)c(Cl)c3)c12
20.8%

Form entry - test system: Protein-tyrosine kinase 2-beta (Homo sapiens) (UniProt Q14289); read-out: inhibition; compound: COc1cccc(-c2c[nH]c3c(N/N=C/c4ccncc4)ncnc23)c1
9.78%

Lab request: please report inhibition under test system Protein-tyrosine kinase 2-beta (Homo sapiens) (UniProt Q14289) for c1ccc(COc2ccc(Nc3ncnc4ccc(-c5ccco5)cc34)cc2)cc1;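 further: values are the mean percent inhibition of PYK2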
1.9%

Enter reported inhibition observed with Protein-tyrosine kinase 2-beta (Homo sapiens) (UniProt Q14289) for COc1cc2c(cc1Nc1nc(Nc3ccsc3C(N)=O)c3cc[nH]c3n1)N(C(=O)CN(C)C)CCC2(C)C
96.7%

State its inhibition on Protein-tyrosine kinase 2-beta (Homo sapiens) (UniProt Q14289): Fc1ccc(-c2cc(-c3c[nH]nc3-c3ccccn3)ccn2)cc1
19.4%

====

molecular target: Mast/stem cell growth factor receptor Kit (Homo sapiens); conditions: at 0.1 µM;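 further: values are mean inhibition of KIT, from the GSK PKIS dataset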
The reader will find reported inhibition values listed item by item below.
Field: numeric (%). Do not append units.

Example results:
compoundStructureString	resultNumber
CCCN(CCS(C)(=O)=O)Cc1ccc(-c2ccc3ncnc(Nc4ccc(OCc5cccc(F)c5)c(Cl)c4)c3c2)o1	2.87
CCn1c(-c2nonc2N)nc2cnc(Oc3cccc(NC(=O)c4ccc(N(C)C)cc4)c3)cc21	0.97
[O-][S+]1CCN(Cc2ccc(-c3ccc4ncnc(Nc5ccc(OCc6cccc(F)c6)c(Cl)c5)c4c3)o2)CC1	4.47
O=C(O[C@H]1CN[C@H](C#Cc2cc3ncnc(Nc4ccc(Cc5ccccc5)cc4)c3s2)C1)N1CCOCC1	2.78
O=S(=O)(CCNCc1ccc(-c2ccc3ncnc(Nc4ccc(OCc5cccc(F)c5)c(Cl)c4)c3c2)o1)c1ccccc1	6.8

Given the entry CNC(=O)c1cncc(/C=C/c2ccccc2Cl)c1 , report its measured inhibition.
0.25

Entry Nc1nc(-c2ccc(F)cc2)c(-c2ccc3ncccc3n2)s1 : reported inhibition = ?
3.28

Need inhibition of COc1cc(N2CCN(C(C)C)CC2)ccc1Nc1nc(Nc2ccc(F)cc2C(N)=O)c2cc[nH]c2n1 , thanks.
-0.57

Please give the measured inhibition for this molecule: CC(=O)Nc1cccc(C#Cc2cncnc2Nc2ccc(OCc3cccc(F)c3)c(Cl)c2)c1
1.83

inhibition for CC(=O)NCc1cccc(C#Cc2cncnc2Nc2ccc(OCc3cccc(F)c3)c(Cl)c2)c1 ?
-1.01

Requested read-out: inhibition. Entry: Fc1ccc(-c2cc(-c3c[nH]nc3-c3ccccn3)ccn2)cc1
5.29

Looking for the measured inhibition of Fc1cccc(COc2ccc(Nc3ncnc4sc(-c5ccco5)cc34)cc2Cl)c1 , can you help?
6.1

inhibition for CCN(CC)S(=O)(=O)c1ccc(OC)c(Nc2ncc(-c3ccccc3)o2)c1 ?
33.5

Look up inhibition: CCn1c(-c2nonc2N)nc2c(C#CC(C)(C)O)nc(OC[C@H](N)c3ccccc3)cc21
3.94

Name the reported inhibition value associated with the molecule COc1cc2c(cc1Nc1nc(Nc3ccsc3C(N)=O)c3cc[nH]c3n1)N(C(=O)CN(C)C)CCC2(C)C
18.8

Recorded inhibition of Cc1ccc2c(-c3ccnc(Nc4ccccc4)n3)c(-c3ccc(F)cc3)nn2n1 , please.
23.8

# inhibition lookup, item Cc1ccc(O)cc1Nc1ccnc2cc(-c3ccccn3)ccc12
10.4

Using the record for Cc1cccc2c1NC(=O)/C2=N\Nc1ccc(S(N)(=O)=O)cc1 , report its inhibition.
8.83
